procedure summary: activity coefficient (dimensionless); of the first substance listed, at infinite dilution; xn = mol fraction of the nth substance listed
run parameters: 363.15 K; 101 kPa; Liquid; Chromatography; x1 = 0
Given measured activity coefficient, output Satisfied if it is greater than or equal to 3 and Not satisfied if not.

Entry Cc1ccccc1 [toluene] + CCCCn1cc[n+](C)c1.O=S(=O)([O-])C(F)(F)F : is its activity coefficient no less than 3? Not satisfied

Similarly, c1ccccc1 [benzene] + CCCCn1cc[n+](C)c1.O=S(=O)([O-])C(F)(F)F ? Not satisfied

Similarly, Cc1ccccc1C [1,2-dimethylbenzene] + CCCCn1cc[n+](C)c1.O=S(=O)([O-])C(F)(F)F ? Satisfied

Similarly, CC(C)CC(C)(C)C [2,2,4-trimethylpentane] + CCCCn1cc[n+](C)c1.O=S(=O)([O-])C(F)(F)F ? Satisfied

Similarly, C=Cc1ccccc1 [styrene] + CCCCn1cc[n+](C)c1.O=S(=O)([O-])C(F)(F)F ? Not satisfied

---

procedure summary: activity coefficient (dimensionless); of the first substance listed, at infinite dilution; xn = mol fraction of the nth substance listed
run parameters: 343.15 K; 101 kPa; Liquid; Chromatography; x1 = 0
Would you kindly list activity coefficient for each of these molecules?
Keep it simple and answer with nothing but the number.

What value of activity coefficient has been reported for the following molecule? CCc1ccccc1 [ethylbenzene] + CCCCn1cc[n+](C)c1.O=S(=O)([O-])C(F)(F)F 4.5

Similarly, CC1CCCCC1 [methylcyclohexane] + CCCCn1cc[n+](C)c1.O=S(=O)([O-])C(F)(F)F ? 24.1

Similarly, Cc1cccc(C)c1 [1,3-dimethylbenzene] + CCCCn1cc[n+](C)c1.O=S(=O)([O-])C(F)(F)F ? 4.41

Similarly, CCCCCCCC [octane] + CCCCn1cc[n+](C)c1.O=S(=O)([O-])C(F)(F)F ? 63.2

Similarly, C=Cc1ccccc1 [styrene] + CCCCn1cc[n+](C)c1.O=S(=O)([O-])C(F)(F)F ? 2.53

Similarly, Cc1ccccc1 [toluene] + CCCCn1cc[n+](C)c1.O=S(=O)([O-])C(F)(F)F ? 2.83

Similarly, Cc1ccc(C)cc1 [1,4-dimethylbenzene] + CCCCn1cc[n+](C)c1.O=S(=O)([O-])C(F)(F)F ? 4.41

Similarly, CC(C)CC(C)(C)C [2,2,4-trimethylpentane] + CCCCn1cc[n+](C)c1.O=S(=O)([O-])C(F)(F)F ? 45.6

Similarly, C1=CCCCC1 [cyclohexene] + CCCCn1cc[n+](C)c1.O=S(=O)([O-])C(F)(F)F ? 9.34

Similarly, CCCCCCCCC [nonane] + CCCCn1cc[n+](C)c1.O=S(=O)([O-])C(F)(F)F ? 88.2

Similarly, CCCCC [pentane] + CCCCn1cc[n+](C)c1.O=S(=O)([O-])C(F)(F)F ? 22.2

Similarly, CCCCCCCCCC [decane] + CCCCn1cc[n+](C)c1.O=S(=O)([O-])C(F)(F)F ? 409

Similarly, CCCCCCC [heptane] + CCCCn1cc[n+](C)c1.O=S(=O)([O-])C(F)(F)F ? 43.3

Similarly, Cc1ccccc1C [1,2-dimethylbenzene] + CCCCn1cc[n+](C)c1.O=S(=O)([O-])C(F)(F)F ? 3.71

Similarly, C1CCCCC1 [cyclohexane] + CCCCn1cc[n+](C)c1.O=S(=O)([O-])C(F)(F)F ? 16.9

Similarly, c1ccccc1 [benzene] + CCCCn1cc[n+](C)c1.O=S(=O)([O-])C(F)(F)F ? 1.86

Similarly, CCCCCC [hexane] + CCCCn1cc[n+](C)c1.O=S(=O)([O-])C(F)(F)F ? 30.3
